# Test system: UACC-62 melanoma
# assay details: NCI-60 one-dose screen, 48 h (100 = growth as untreated, 0 = no growth, -100 = all killed)
# condition info: 10 µM unless noted
The panel holds about 83,000 compounds, 20% with a hit somewhere; the sample as a whole holds those more often.
Recorded growth determines the group label, using low bracket = under 40%, middle bracket = from 40% up to 80%, high bracket = 80% and over

# compound, cat
data = [
    ("NC1=Nc2cc(OCCCCN3Cc4ccccc4C3)c(OCC3CC3)cc2C12CCCC2", "middle bracket"),
    ("Cc1ccc(-c2csc(NC(=O)c3ccccc3CN3C(=O)c4ccccc4C3=O)n2)cc1", "middle bracket"),
    ("COc1ccc(CCN2C(=O)/C(=C/c3ccc(C4Oc5ccccc5C5CC(c6ccccc6)=NN54)cc3)SC2=S)cc1 (centres undefined)", "high bracket"),
    ("COc1ccc2c(c1)c(-c1nc(-c3c[nH]c4ncccc34)cs1)cn2CCCN1CCOCC1", "middle bracket"),
    ("C=C1C(=O)O[C@H]2[C@H]1CC/C(COC(=O)c1cc3cc(Cl)ccc3[nH]1)=C\\CC[C@@]1(C)O[C@@H]21", "low bracket"),
    ("Cc1nn(-c2ccccc2)c(N)c1N=C1NC(=O)/C(=C/c2ccc(Br)cc2)S1", "middle bracket"),
    ("CN1CCN(c2ccc(NC(=O)c3cncnc3Nc3ccc(OCc4cccc(F)c4)c(Cl)c3)cc2)CC1", "middle bracket"),
    ("S=c1nc2oc(-c3ccccc3)c(-c3ccccc3)c2c(/N=C\\c2ccco2)[nH]1", "high bracket"),
    ("Cc1nc2sc(C(=O)Nc3cccc(Br)c3C)c(N)c2cc1C(O)c1ccccc1 (centres undefined)", "low bracket"),
]

---

# Tested on: HCT-15 colon
# assay details: NCI-60 one-dose screen, 48 h
# condition info: 10 µM unless noted
The panel holds about 83,000 compounds, 20% with a hit somewhere; the sample as a whole holds those more often. The source made the active and inactive calls. Rule for the calls: active = growth percent below 10; inactive = the rest.
Labels: active, inactive

# compound, target system, cat
data = [
    ("CC1C=CC(OC(=O)C(C)(O)CCC(O)(C(=O)OC2CC(O)C(C(C)C)CC2(C)O)C(C)C)(C(C)C)CC1 (stereo not given)", "HCT-15 colon", "active"),
    ("O=C(/C=C/c1ccc(Oc2ccc(Br)cc2)cc1)c1ccc(Br)cc1", "HCT-15 colon", "inactive"),
    ("CCN(CC)c1ccc(CNc2cc(C)nc3ccccc23)cc1", "HCT-15 colon", "inactive"),
    ("NC(=O)c1cnc(Nc2cccc(N)c2)nc1NCCCNC(=O)C1CCC1", "HCT-15 colon", "inactive"),
    ("C=Cc1cnc(Nc2ccc(OC)cc2)nc1NCCCNC(=O)C1CCC1", "HCT-15 colon", "inactive"),
    ("O=C(/C=C/C12c3ccccc3C(c3ccccc31)C1C(=O)NC(=O)C12)c1ccc(Br)cc1 (stereo not given)", "HCT-15 colon", "inactive"),
    ("CO[C@H](C(=O)[C@@H](O)[C@@H](C)O)[C@@H]1Cc2cc3cc(O[C@H]4C[C@@H](O[C@H]5C[C@@H](O)[C@H](O)C(C)O5)[C@H](O)C(C)(O)O4)cc(O)c3c(O)c2C(=O)[C@H]1O[C@H]1C[C@@H](O[C@H]2C[C@@H](O[C@H]3C[C@@H](OC)[C@H](O)C(C)O3)[C@@H](O)C(C)O2)[C@H](O)C(C)O1 (stereo not given in full)", "HCT-15 colon", "inactive"),
    ("COc1ccc(/C=C/C(=O)c2cc(OC)c(OC)c(OC)c2)cc1OCC(=O)Nc1nc2ccc(OC(F)(F)F)cc2s1", "HCT-15 colon", "inactive"),
    ("COc1ccc(N2CCC(=S)NC2=S)cc1", "HCT-15 colon", "inactive"),
    ("Cc1ccccc1Nc1cc(O)c2c(=O)cc(-c3ccccc3)oc2c1", "HCT-15 colon", "inactive"),
    ("N#Cc1c(Nc2ccc(N3CCOCC3)cc2)nc(SCC(=O)c2ccc(Br)cc2)nc1-c1ccccc1", "HCT-15 colon", "inactive"),
    ("O=C(CCl)NNc1nccc(Nc2ccc(S(=O)(=O)Nc3ccncc3)cc2)n1", "HCT-15 colon", "inactive"),
    ("N=C(N)c1ccc(-c2ccc(-c3cc(Cl)cc(Cl)c3)s2)nc1", "HCT-15 colon", "active"),
    ("O=C(NC1CC(F)C1)c1cc2cccnc2n1-c1ccc(Cl)c(Cl)c1 (stereo not given)", "HCT-15 colon", "inactive"),
    ("CCN1C(=O)N(CC)C2C1NC(=S)N2/N=C/c1ccc(OC)cc1 (stereo not given)", "HCT-15 colon", "inactive"),
    ("COc1cc(OC)c(C(=O)C(CN(C)C)CN(C)C)cc1OC", "HCT-15 colon", "active"),
    ("Cc1ccc2c(=O)cc(C(=O)Nc3sc4c(c3C(=O)NCc3cccnc3)CCCC4)oc2c1C", "HCT-15 colon", "inactive"),
    ("COc1ccc(-c2cc(-c3ccccc3)nc(N3CCN(CCNc4ccnc5cc(Cl)ccc45)CC3)n2)cc1", "HCT-15 colon", "active"),
    ("CCC1S/C(=N\\N=C(\\C)c2cc3cc(Cl)ccc3o2)N(c2ccccc2)C1=O (stereo not given)", "HCT-15 colon", "inactive"),
    ("Cc1ccc(C2CC(c3nc(-c4ccc(Cl)cc4)oc3C)=NN2C(=O)c2ccncc2)cc1 (stereo not given)", "HCT-15 colon", "inactive"),
    ("O=C(N/N=C\\c1ccccc1S(=O)(=O)O)N/N=C/c1ccccc1S(=O)(=O)O", "HCT-15 colon", "inactive"),
    ("Cc1ccc(CNc2c3ccccc3nc3ccccc23)cc1", "HCT-15 colon", "inactive"),
    ("C=CC(=O)Nc1ccc(Oc2nccc(Nc3nnc(-c4ccc(C)cc4)s3)n2)cc1", "HCT-15 colon", "inactive"),
    ("COC(=O)CCC/C=C\\C[C@H]1C=CC(=O)/C1=C/C[C@@H](O)C/C=C\\CC(F)(F)F", "HCT-15 colon", "active"),
    ("CCOc1cccc(/C=N/NC(=O)c2cccc(Nc3ccnc(C(F)(F)F)c3)c2)c1O", "HCT-15 colon", "inactive"),
    ("NS(=O)(=O)c1ccc(-c2cc(-c3nnc(SCC(=O)Nc4ccc(C(=O)/C=C/c5ccc(Cl)cc5)cc4)n3-c3ccccc3)c3ccccc3n2)cc1", "HCT-15 colon", "inactive"),
    ("CCCCNC(=O)Oc1ccc(/C(=C(/C)Cc2ccc(OC)cc2)c2ccc(OCCN3CCCCC3)cc2)cc1", "HCT-15 colon", "inactive"),
    ("N#C/C(=C\\c1ccc(-c2cccc(C(F)(F)F)c2)o1)c1ccccc1", "HCT-15 colon", "inactive"),
    ("Cc1ccc(/C=C/C(=O)Nc2ncc(Cc3ccc(F)cc3)s2)o1", "HCT-15 colon", "inactive"),
    ("CCn1c(-c2cc3c([nH]c4ccccc43)c(-c3cccc(O)c3)n2)n[nH]c1=S", "HCT-15 colon", "inactive"),
    ("CC(=O)O[C@H]1C[C@@H]2C(C)(C)C(=O)CC[C@@]2(C)c2ccc(C(C)C)cc21", "HCT-15 colon", "inactive"),
    ("COc1ccc2cc(-c3ccnc4c(N=Nc5ccc(Cl)cc5)c(N)nn34)ccc2c1", "HCT-15 colon", "inactive"),
    ("CSc1nn2c(-c3ccc4ccccc4c3)ccnc2c1C#N", "HCT-15 colon", "inactive"),
    ("c1ccc(CCNc2c3ccccc3nc3ccccc23)cc1", "HCT-15 colon", "inactive"),
    ("O=C1C(Nc2ccccn2)=C(I)C(=O)c2ncccc21", "HCT-15 colon", "active"),
    ("CC1(C)N=C(N)N=C(N)N1c1ccc(CCCCc2ccccc2)c(Cl)c1", "HCT-15 colon", "inactive"),
    ("CCOC(=O)C1=C(C)C(Cl)=N/C1=C\\c1[nH]c(Cl)c(C)c1C(=O)OCC", "HCT-15 colon", "inactive"),
    ("CCOC(=O)c1cnc2c(N=Nc3ccc(OC)cc3)c(N)nn2c1N", "HCT-15 colon", "inactive"),
    ("COc1cc(Cl)c(C)cc1NC(=O)c1cc2ccccc2cc1O", "HCT-15 colon", "active"),
    ("[2H]C([2H])([2H])Oc1ccc(F)cc1/C=C/C(=O)/C=C(O)/C=C/c1cc(F)ccc1OC([2H])([2H])[2H]", "HCT-15 colon", "inactive"),
]

---

Measured growth, listed per entry.
# System: MCF7 breast
# assay details: NCI-60 one-dose screen, 48 h (100 = growth as untreated, 0 = no growth, -100 = all killed)
# condition info: 10 µM unless noted
The panel holds about 83,000 compounds, 20% with a hit somewhere; the sample as a whole holds those more often.

# structure smiles string, growth / %
records = [
    ("C#CC#CC#CC#CC#CC#CC#CC#CC[C@@H]1OC[C@@H](COC(=O)O[C@@H](C(=O)O[C@H]2C[C@@]3(O)[C@@H](OC(=O)c4ccccc4)[C@@H]4[C@]5(OC(C)=O)CO[C@@H]5C[C@H](O)[C@@]4(C)C(=O)[C@H](OC(C)=O)C(=C2C)C3(C)C)[C@@H](NC(=O)c2ccccc2)c2ccccc2)O1", 13.6),
    ("CCCCCCCC/C=C\\CCCCCCCCOc1ccc(CC(=O)NCC[N+]2(C)CCOCC2)cc1", 81.7),
    ("O=C(Nc1ccccc1[N+](=O)[O-])c1ccc(Cl)c(Cl)c1", 52),
    ("[2H]C([2H])([2H])Oc1ccc(F)cc1/C=C/C(=O)/C=C(/C=C/c1cc(F)ccc1OC([2H])([2H])[2H])OB(F)F", 37),
    ("Cc1ccc2c(-c3nnc(N)s3)cc(=O)oc2c1C", 93.4),
    ("Cc1ccc(-c2nc3nc(-c4ccccc4)nc(N4CCCN(S(C)(=O)=O)CC4)c3o2)cc1", 65.1),
    ("COc1ccc(C(=S)N2CCN(c3ccc(Cl)cc3)CC2)cc1", 94),
]
